System: HCT-116 colon
Assay Comment: NCI tumour cell line growth inhibition, 48 h
Value Kind: TGI

compound=CN(C)c1ccc(N=Nc2cccc3ncccc23)cc1 target_desc="HCT-116 colon" observed="> 100 µM"
compound=[O-]c1c[n+](CC[n+]2cc([O-])on2)no1 target_desc="HCT-116 colon" observed="> 100 µM"
compound=CC(C)(c1ccc(OC#N)cc1)c1ccc(OC#N)cc1 target_desc="HCT-116 colon" observed="> 61 µM"
compound="COc1ccc(/C=C2\\CN(C)CC3C2=NC(=S)NC3c2ccc(OC)cc2)cc1 (stereo not drawn)" target_desc="HCT-116 colon" observed="> 44.7 µM"
compound=Clc1ccccc1-c1nnc2c(-c3ccccc3)nc3ccccc3n12 target_desc="HCT-116 colon" observed="> 100 µM"
compound=COc1ccccc1/C=N/N=C(\N)NO target_desc="HCT-116 colon" observed="> 100 µM"
compound=CCOC(=O)c1nc2ccccc2nc1Oc1ccc(OC)cc1 target_desc="HCT-116 colon" observed="> 100 µM"
compound="COc1ccc2c(c1)CCCN1Cc3ccccc3CC21 (stereo not drawn)" target_desc="HCT-116 colon" observed="> 100 µM"
compound=Nc1ncc(CN2CCOCC2)c(-c2ccccc2O)n1 target_desc="HCT-116 colon" observed="> 100 µM"
compound="O=C1CCCC1NC(=O)C(F)(F)F (stereo not drawn)" target_desc="HCT-116 colon" observed="> 100 µM"
compound="CC1(C)C2C/C(=C\\c3ccccc3)C(=O)C1C2 (stereo not drawn)" target_desc="HCT-116 colon" observed="> 100 µM"
compound=CN(C)/C=C/c1ccncc1 target_desc="HCT-116 colon" observed="> 100 µM"
compound=Cn1c(=O)c(C(=O)NC(=O)OCc2ccccc2)cn(CCSCCOC(=O)NCCCCCCNC(=O)OCCSCCn2cc(C(=O)NC(=O)OCc3ccccc3)c(=O)n(C)c2=O)c1=O target_desc="HCT-116 colon" observed="> 100 µM"
compound="COc1ccc(NS(=O)c2ccc(OC)cc2)cc1 (stereo not drawn)" target_desc="HCT-116 colon" observed="> 100 µM"
compound=Cc1ccc(S(=O)(=O)c2c3[nH]c4ccccc4nc3n3c2nc2ccccc23)cc1 target_desc="HCT-116 colon" observed="> 100 µM"
compound=CC(C)(C)c1cc(C(=O)/C=C/c2ccc3c(c2)CCO3)cc(C(C)(C)C)c1O target_desc="HCT-116 colon" observed="> 33.7 µM"
compound="O=C(CN1C(=O)c2ccccc2C1=O)C(O)CN1C(=O)c2ccccc2C1=O (stereo not drawn)" target_desc="HCT-116 colon" observed="> 100 µM"
compound=COc1cccc(C[C@H]2COC(=O)[C@]2(O)Cc2cccc(OC)c2)c1 target_desc="HCT-116 colon" observed="> 100 µM"

---

Test system: A498 renal
Assay Comment: NCI tumour cell line growth inhibition, 48 h
Catalogue of TGI values
Value Kind: TGI

compound="CC(C)CCCC(C)[C@H]1CC[C@H]2[C@@H]3CC[C@H]4C[C@@H](CCC=C(c5cc(Cl)c(O)c(C(=O)O)c5)c5cc(Cl)c(O)c(C(=O)O)c5)CC[C@]4(C)[C@H]3CC[C@]12C (stereo partly specified) (tested in a mixture with another compound)" observed="> 50 µM"
compound="CCN(CC)c1cccc2c1C1(O)CCC3(CC21)OCCCCO3 (stereo unspecified)" observed="> 100 µM"
compound="CC[N+]1(C)CCC(O)(/C=C/c2ccc(Cl)cc2)C(C(=O)/C=C/c2ccc(Cl)cc2)C1 (stereo unspecified)" observed="30.2 µM"
compound=c1ccc2c3c([nH]c2c1)C1(CCCCC1)c1c([nH]c2ccccc12)C31CCCCC1 observed="54 µM"
compound=CO/N=C(/C(=O)OC)c1ccccc1COc1cccc(C(F)(F)F)c1 observed="> 100 µM"
compound=Cc1cc(-c2nc3cc(O)ccc3s2)ccc1N observed="61.7 µM"
compound=CCOC(=O)C(=CNC(=S)Nc1c(CC)cccc1CC)C(=O)OCC observed="> 100 µM"
compound=Cc1cc(=O)oc2cc(OCc3nc4ccccc4c(=O)[nH]3)ccc12 observed="> 100 µM"
compound=CC1=Nn2c(nnc2-c2ccc(N)cc2)NC(C)(C)C1 observed="> 100 µM"
compound=O/N=C1\CCc2cc3c(cc21)CCC3 observed="> 100 µM"
compound="Cc1cc(C)c(NS(=O)c2cccc(Cl)c2)c(C)c1 (stereo unspecified)" observed="> 100 µM"
compound=CC(C)(C)c1cc(C(=O)/C=C/c2ccc3c(c2)CCO3)cc(C(C)(C)C)c1O observed="24.4 µM"
compound=COc1cc2cccc(NC(=O)c3cc(OC)c(OC)c(OC)c3Br)c2cc1OC observed="> 100 µM"
compound=O=S1c2ccccc2SCSc2ccccc21 observed="> 100 µM"
compound=COc1cccc(C[C@H]2COC(=O)[C@]2(O)Cc2cccc(OC)c2)c1 observed="> 100 µM"
compound=C[CH2][Sn]([Cl])([Cl])[CH2]C observed="43.7 µM"
